assay-remarks: in vivo
Parameters: species or system male Balb/c mice
particulars: male, Balb/c, mouse, po, 10 mg/kg
measurement-name: Cmax
Reply with the number and its unit after it.

Any idea what its Cmax is? The molecule is N=C(N)NCCCCC(=O)Nc1cc(C(F)(F)F)cc(NC(=O)c2cc(C(=O)Nc3cc(C(F)(F)F)cc(NC(=O)CCCCNC(=N)N)c3O[C@@H]3CCNC3)ncn2)c1O[C@@H]1CCNC1
38900 ng/g

----------
assay-remarks: Plasma pharmacokinetics after IV or PO administration (Study 16009-12001)
Type: in vivo, male Balb/c mice
particulars: Balb/c, mouse, PO 10 mg/kg, male mice
measurement-name: AUC(0-t) (ng·h/mL)
One number for each entry, in ng·h/mL.

Requested field: AUC(0-t). Item: N=C(N)NCCCCC(=O)Nc1cc(C(F)(F)F)cc(NC(=O)c2cc(C(=O)Nc3cc(C(F)(F)F)cc(NC(=O)CCCCNC(=N)N)c3O[C@@H]3CCNC3)ncn2)c1O[C@@H]1CCNC1 [PMX-30063]
111

----------
assay-remarks: Plasma pharmacokinetics after IV or PO administration (Study 16009-12001)
Format: in vivo, male Balb/c mice
particulars: Balb/c, mouse, IV 5 mg/kg, male mice, read-out: Vz
measurement-name: Vd (L/kg)
One number for each entry, in L/kg.

What value of measured Vd is listed for N=C(N)NCCCCC(=O)Nc1cc(C(F)(F)F)cc(NC(=O)c2cc(C(=O)Nc3cc(C(F)(F)F)cc(NC(=O)CCCCNC(=N)N)c3O[C@@H]3CCNC3)ncn2)c1O[C@@H]1CCNC1 ?
0.204

----------
assay-remarks: Plasma pharmacokinetics after IV or PO administration (Study 16009-12001)
Assay type: in vivo, male Balb/c mice
particulars: Balb/c, mouse, IV 5 mg/kg, male mice
measurement-name: Tmax (min)
Numbers only, in min.

# query: Tmax of entry N=C(N)NCCCCC(=O)Nc1cc(C(F)(F)F)cc(NC(=O)c2cc(C(=O)Nc3cc(C(F)(F)F)cc(NC(=O)CCCCNC(=N)N)c3O[C@@H]3CCNC3)ncn2)c1O[C@@H]1CCNC1
4.98
